# ASSAY SYSTEM: MAO-B (monoamine oxidase-B) (Homo sapiens, UniProt P27338)
# Sequence (P27338 2-520): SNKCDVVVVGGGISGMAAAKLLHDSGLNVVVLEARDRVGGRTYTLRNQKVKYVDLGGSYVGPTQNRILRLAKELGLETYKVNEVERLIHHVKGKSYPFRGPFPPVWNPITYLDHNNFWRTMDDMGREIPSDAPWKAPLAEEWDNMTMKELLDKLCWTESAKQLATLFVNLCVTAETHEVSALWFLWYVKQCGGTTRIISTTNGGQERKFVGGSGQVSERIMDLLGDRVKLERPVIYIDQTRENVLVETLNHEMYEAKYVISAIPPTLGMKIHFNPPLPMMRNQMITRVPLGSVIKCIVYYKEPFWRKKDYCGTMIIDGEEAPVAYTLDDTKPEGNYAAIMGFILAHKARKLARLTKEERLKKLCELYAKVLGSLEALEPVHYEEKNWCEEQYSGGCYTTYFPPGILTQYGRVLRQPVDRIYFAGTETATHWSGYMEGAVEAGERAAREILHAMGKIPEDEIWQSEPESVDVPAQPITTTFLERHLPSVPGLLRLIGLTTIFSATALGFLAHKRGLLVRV
# PROTOCOL DESCRIPTION: fluorometric OxiRed-probe kit inhibition assay
# Type: biochemical
TEST READOUT: IC50 (µM)

Answered examples (3):
COc1cc(/C=C/C(=O)NCCc2ccc(O)c(OC)c2)ccc1O [compound 1, N-trans-feruloyl-3-methoxytyramine]	2.07
COc1cc(/C=C/C(=O)NC[C@@H](OC)c2ccc(O)cc2)ccc1O	4.43
O=C(/C=C/c1ccc(O)c(O)c1)NCCc1ccc(O)cc1 [compound 6, N-trans-caffeoyltyramine]	8.75

(1) COc1cc(/C=C/C(=O)NCCc2ccc(O)cc2)ccc1O [compound 2, N-trans-feruloyltyramine]
(2) COc1cc(/C=C/C(=O)NC[C@@H](O)c2ccc(O)cc2)ccc1O [compound 4, S-(−)-N-trans-feruloyloctopamine]
Data request: Hello, I am sorting some records. Could you say if 1 or 2 has the smaller IC50 value? Record your answer as the label of the chosen record.
Data returned: 1
(1: 7.15 µM, 2: 18 µM)
